Target: TTK (MV4-11^HiBiT-TTK cells) (Homo sapiens)
Construct: expressed in transfected cells; host or cells: MV4-11, lentiviral transduction (pRRL-PGK-HiBiT entry vector)
Sequence (P33981 whole entry): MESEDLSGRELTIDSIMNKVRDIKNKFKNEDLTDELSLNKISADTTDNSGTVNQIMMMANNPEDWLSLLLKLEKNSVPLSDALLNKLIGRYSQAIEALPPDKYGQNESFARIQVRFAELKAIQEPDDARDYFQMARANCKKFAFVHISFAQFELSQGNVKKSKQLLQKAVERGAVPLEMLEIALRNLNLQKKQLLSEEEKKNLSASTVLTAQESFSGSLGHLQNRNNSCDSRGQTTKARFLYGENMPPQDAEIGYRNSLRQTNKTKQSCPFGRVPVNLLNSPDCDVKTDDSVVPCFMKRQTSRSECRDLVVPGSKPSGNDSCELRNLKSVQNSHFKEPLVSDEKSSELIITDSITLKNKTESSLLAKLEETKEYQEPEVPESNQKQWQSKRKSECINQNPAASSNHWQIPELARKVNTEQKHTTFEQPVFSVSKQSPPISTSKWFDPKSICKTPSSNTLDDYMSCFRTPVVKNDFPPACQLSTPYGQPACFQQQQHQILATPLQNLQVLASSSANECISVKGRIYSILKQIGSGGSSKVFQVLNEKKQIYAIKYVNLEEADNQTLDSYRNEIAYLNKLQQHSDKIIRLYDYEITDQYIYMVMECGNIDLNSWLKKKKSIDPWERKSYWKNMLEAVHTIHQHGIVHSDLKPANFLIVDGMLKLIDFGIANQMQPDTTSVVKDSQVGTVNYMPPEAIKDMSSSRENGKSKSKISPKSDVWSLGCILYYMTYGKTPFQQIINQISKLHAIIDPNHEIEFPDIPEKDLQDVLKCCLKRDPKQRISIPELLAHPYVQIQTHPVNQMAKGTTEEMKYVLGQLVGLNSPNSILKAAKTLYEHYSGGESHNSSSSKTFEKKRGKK
Experiment: HiBiT assay, TTK degradation
Type: cell-based
Details: 6 h treatment, MV4-11^HiBiT-TTK cells
metric.name: Dmax (maximal degradation) TTK (%)
Enter your answer as a number in %; do not include the unit.

Reference set, count: 3
{"compound": "CC(C)S(=O)(=O)c1ccccc1Nc1nc(Nc2ccc(N3CCN(CCCC(=O)Nc4cccc5c4C(=O)N(C4CCC(=O)NC4=O)C5=O)CC3)cc2)nc2[nH]cnc12 (stereo not shown)", "Dmax (maximal degradation) TTK [%]": 52.95}
{"compound": "Cc1ncsc1-c1ccc(CNC(=O)[C@@H]2C[C@H](O)CN2C(=O)[C@@H](NC(=O)COCCOCC(=O)N2CCN(c3ccc(Nc4nc(Nc5ccccc5S(=O)(=O)C(C)C)c5nc[nH]c5n4)cc3)CC2)C(C)(C)C)cc1", "Dmax (maximal degradation) TTK [%]": 73.95}
{"compound": "Cc1ncsc1-c1ccc(CNC(=O)[C@@H]2C[C@@H](O)CN2C(=O)[C@@H](NC(=O)CCCC(=O)N2CCN(c3ccc(Nc4nc(NC5CCCCC5)c5nc[nH]c5n4)cc3)CC2)C(C)(C)C)cc1", "Dmax (maximal degradation) TTK [%]": 32.70}

// query Value lookup for Dmax (maximal degradation) TTK; key = O=C1CCC(N2C(=O)c3cccc(NC(=O)CCCC(=O)N4CCN(c5ccc(Nc6nc(NC7CCCCC7)c7nc[nH]c7n6)cc5)CC4)c3C2=O)C(=O)N1 (stereo not shown)
// result 27.70

// query Requested read-out: Dmax (maximal degradation) TTK. Entry: CC(C)S(=O)(=O)c1ccccc1Nc1nc(Nc2ccc(N3CCN(C(=O)CCC(=O)Nc4cccc5c4C(=O)N(C4CCC(=O)NC4=O)C5=O)CC3)cc2)nc2[nH]cnc12 (stereo not shown)
// result 35.20

These data points were gathered from paper PMC11555526.
